- target_or_test_system: CDK2/Cyclin A2 (Homo sapiens)
- test_description: Inhibition of human CDK2/cyclin A using Biotin-C6-PKTPKKAKKL substrate
Please respond with reported IC50 for every item in the list.
Give the quantity in nM, number only.

The molecule listed as `CO[C@H]1CC[C@H](NC(=O)c2n[nH]cc2NC(=O)C2CCC(F)(F)CC2)CC1` shows IC50 equal to 1000

The molecule listed as `COc1cccc(OC)c1C(=O)Nc1c[nH]nc1C(=O)N[C@H]1CC[C@H](OC)CC1` shows IC50 equal to 190

The molecule listed as `COc1cccc(OC)c1C(=O)Nc1c[nH]nc1C(=O)NC1CCN(C(=O)OC(C)(C)C)CC1` shows IC50 equal to 4700

====

Please respond with reported Ratio IC50 for every item in the list.
- test_description: Selectivity ratio, ratio of IC50 for human GSK3 to IC50 Trypanosoma brucei GSK3

The compound listed as `COc1cccc(OC)c1C(=O)Nc1c[nH]nc1C(=O)NCCCN(C)C` shows Ratio IC50 equal to 1.4

The compound listed as `CO[C@H]1CC[C@H](NC(=O)c2n[nH]cc2NC(=O)C2CCOCC2)CC1` shows Ratio IC50 equal to 0.0012

The compound listed as `COc1cccc(OC)c1C(=O)Nc1c[nH]nc1C(=O)Nc1ccncc1` shows Ratio IC50 equal to 30

The compound listed as COc1cccc(OC)c1C(=O)Nc1c[nH]nc1C(=O)NC1CCN(Cc2ccccc2)C1 (stereo unspecified) shows Ratio IC50 equal to 10

The compound listed as `CO[C@H]1CC[C@H](NC(=O)c2n[nH]cc2NC(=O)Cc2ccccc2F)CC1` shows Ratio IC50 equal to 0.35

The compound listed as `COCCNC(=O)c1n[nH]cc1NC(=O)c1c(OC)cccc1OC` shows Ratio IC50 equal to 8.8

The compound listed as `CCc1ccccc1C(=O)Nc1c[nH]nc1C(=O)N[C@H]1CC[C@H](OC)CC1` shows Ratio IC50 equal to 0.38

The compound listed as `COc1ccccc1CC(=O)Nc1c[nH]nc1C(=O)N[C@H]1CC[C@H](OC)CC1` shows Ratio IC50 equal to 0.42

The compound listed as `COc1cc(OC)c(C(=O)Nc2c[nH]nc2C(=O)N[C@H]2CC[C@H](OC)CC2)c(OC)c1` shows Ratio IC50 equal to 30

The compound listed as `COc1cccc(OC)c1C(=O)Nc1c[nH]nc1C(=O)NC1CCCCCC1` shows Ratio IC50 equal to 20

The compound listed as `COc1cccc(OC)c1C(=O)Nc1c[nH]nc1C(=O)NC1CC1` shows Ratio IC50 equal to 18

The compound listed as `COc1cccc(OC)c1C(=O)Nc1c[nH]nc1C(=O)Nc1ccccn1` shows Ratio IC50 equal to 2.9

The compound listed as `COc1cccc(OC)c1C(=O)Nc1c[nH]nc1C(=O)NC1CCCCC1` shows Ratio IC50 equal to 50

The compound listed as `COc1cccc(OC)c1C(=O)Nc1c[nH]nc1C(=O)NCc1ccccn1` shows Ratio IC50 equal to 21

The compound listed as `COc1cccc(OC)c1C(=O)Nc1c[nH]nc1C(=O)Nc1ccccc1` shows Ratio IC50 equal to 12

The compound listed as `COc1cccc(OC)c1C(=O)Nc1c[nH]nc1C(=O)NCc1ncccc1C` shows Ratio IC50 equal to 6.2

The compound listed as `CO[C@H]1CC[C@H](NC(=O)c2n[nH]cc2NC(=O)c2ncoc2-c2ccccc2)CC1` shows Ratio IC50 equal to 0.0058

The compound listed as `COc1cccc(OC)c1C(=O)Nc1c[nH]nc1C(=O)NCc1ccccc1` shows Ratio IC50 equal to 330

The compound listed as `COc1cccc(OC)c1C(=O)Nc1c[nH]nc1C(=O)NN1CCOCC1` shows Ratio IC50 equal to 5.6

The compound listed as `CO[C@H]1CC[C@H](NC(=O)c2n[nH]cc2NC(=O)C2CCC(F)(F)CC2)CC1` shows Ratio IC50 equal to 0.16

The compound listed as `COc1cccc(OC)c1C(=O)Nc1c[nH]nc1C(=O)NC1CCN(C(=O)OC(C)(C)C)CC1` shows Ratio IC50 equal to 23
